Assay: Pharmacokinetics of intraperitoneal or intravenous injection in CD1 mice (plasma, LC/MS/MS)
Assay type: in vivo
Settings: male, CD1, mouse, plasma, iv, 1 mg/kg, IV 1.0 mg/kg, 0.5 h, read-out: Conc. Mouse 1
property-name: concentration at 0.5 h (ng/mL)
Please reply with the bare figure in ng/mL and do not write the unit itself.

IN: Report measured concentration at 0.5 h; entry is COc1cc2c(Oc3ccc(NC(=O)C4(C(=O)Nc5ccc(F)cc5)CC4)cc3F)ccnc2cc1OCCCOCCCOCCC(=O)N[C@H](C(=O)N1C[C@H](O)C[C@H]1C(=O)NCc1ccc(-c2scnc2C)cc1)C(C)(C)C
OUT: 280
